Attribution: patent US11096909B2

Target: ARTD4/PARP4 (Homo sapiens, UniProt Q9UKK3)
Sequence (Q9UKK3 whole entry): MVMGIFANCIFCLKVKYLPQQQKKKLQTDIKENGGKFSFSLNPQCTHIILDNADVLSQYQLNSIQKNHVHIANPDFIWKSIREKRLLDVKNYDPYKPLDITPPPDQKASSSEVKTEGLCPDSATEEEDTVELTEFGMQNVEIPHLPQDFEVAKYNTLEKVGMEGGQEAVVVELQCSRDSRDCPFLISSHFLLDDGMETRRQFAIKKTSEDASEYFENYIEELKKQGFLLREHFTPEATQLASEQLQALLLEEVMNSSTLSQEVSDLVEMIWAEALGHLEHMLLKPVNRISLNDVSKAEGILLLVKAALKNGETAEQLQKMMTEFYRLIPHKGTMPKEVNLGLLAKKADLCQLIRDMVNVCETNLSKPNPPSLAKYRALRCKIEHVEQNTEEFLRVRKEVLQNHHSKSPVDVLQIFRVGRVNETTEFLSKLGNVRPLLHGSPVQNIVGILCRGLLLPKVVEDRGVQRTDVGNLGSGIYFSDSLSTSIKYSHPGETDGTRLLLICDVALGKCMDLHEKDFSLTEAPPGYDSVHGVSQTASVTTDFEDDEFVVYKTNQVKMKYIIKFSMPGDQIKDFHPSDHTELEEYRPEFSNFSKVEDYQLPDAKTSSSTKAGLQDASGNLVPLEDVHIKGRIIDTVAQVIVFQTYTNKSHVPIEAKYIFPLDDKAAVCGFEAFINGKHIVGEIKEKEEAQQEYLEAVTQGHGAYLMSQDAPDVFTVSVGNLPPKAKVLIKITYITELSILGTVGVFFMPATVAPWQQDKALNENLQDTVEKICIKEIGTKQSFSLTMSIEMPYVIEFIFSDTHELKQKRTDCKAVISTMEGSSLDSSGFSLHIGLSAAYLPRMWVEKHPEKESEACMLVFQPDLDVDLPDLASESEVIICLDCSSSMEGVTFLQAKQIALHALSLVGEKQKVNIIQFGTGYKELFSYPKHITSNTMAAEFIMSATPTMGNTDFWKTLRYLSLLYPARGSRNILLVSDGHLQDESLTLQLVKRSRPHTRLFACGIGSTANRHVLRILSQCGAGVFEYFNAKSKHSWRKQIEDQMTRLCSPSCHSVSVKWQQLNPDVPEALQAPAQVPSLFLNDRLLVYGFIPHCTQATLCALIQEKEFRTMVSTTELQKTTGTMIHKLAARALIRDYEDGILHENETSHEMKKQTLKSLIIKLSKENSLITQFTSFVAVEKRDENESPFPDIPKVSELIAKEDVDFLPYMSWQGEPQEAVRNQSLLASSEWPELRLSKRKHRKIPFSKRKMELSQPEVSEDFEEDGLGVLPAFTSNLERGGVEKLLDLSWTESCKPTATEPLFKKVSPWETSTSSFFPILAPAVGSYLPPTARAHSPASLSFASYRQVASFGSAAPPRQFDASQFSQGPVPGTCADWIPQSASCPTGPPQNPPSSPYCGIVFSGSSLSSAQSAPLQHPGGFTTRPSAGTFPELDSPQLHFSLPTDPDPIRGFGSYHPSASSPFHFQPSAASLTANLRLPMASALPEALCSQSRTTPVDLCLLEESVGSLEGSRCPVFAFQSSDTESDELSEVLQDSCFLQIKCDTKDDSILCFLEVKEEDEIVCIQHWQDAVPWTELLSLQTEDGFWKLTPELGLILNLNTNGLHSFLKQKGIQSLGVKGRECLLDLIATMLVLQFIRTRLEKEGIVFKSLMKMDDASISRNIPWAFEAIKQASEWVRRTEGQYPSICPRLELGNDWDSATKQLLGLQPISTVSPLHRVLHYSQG
Experiment: Activity-based fluorescent assay, ARTD4
recorded endpoint: IC50 (µM)
The reply should be a number in µM, with the unit left off.

[Q] Report IC50 for NC(=O)c1ccc(Oc2ccc(C(N)=O)cc2)cc1 [OUL35, 4,4′-oxydibenzamide] please.
[A] 22.6

* * *

Target: ARTD12/PARP12 (Homo sapiens)
Sequence (Q9H0J9 whole entry): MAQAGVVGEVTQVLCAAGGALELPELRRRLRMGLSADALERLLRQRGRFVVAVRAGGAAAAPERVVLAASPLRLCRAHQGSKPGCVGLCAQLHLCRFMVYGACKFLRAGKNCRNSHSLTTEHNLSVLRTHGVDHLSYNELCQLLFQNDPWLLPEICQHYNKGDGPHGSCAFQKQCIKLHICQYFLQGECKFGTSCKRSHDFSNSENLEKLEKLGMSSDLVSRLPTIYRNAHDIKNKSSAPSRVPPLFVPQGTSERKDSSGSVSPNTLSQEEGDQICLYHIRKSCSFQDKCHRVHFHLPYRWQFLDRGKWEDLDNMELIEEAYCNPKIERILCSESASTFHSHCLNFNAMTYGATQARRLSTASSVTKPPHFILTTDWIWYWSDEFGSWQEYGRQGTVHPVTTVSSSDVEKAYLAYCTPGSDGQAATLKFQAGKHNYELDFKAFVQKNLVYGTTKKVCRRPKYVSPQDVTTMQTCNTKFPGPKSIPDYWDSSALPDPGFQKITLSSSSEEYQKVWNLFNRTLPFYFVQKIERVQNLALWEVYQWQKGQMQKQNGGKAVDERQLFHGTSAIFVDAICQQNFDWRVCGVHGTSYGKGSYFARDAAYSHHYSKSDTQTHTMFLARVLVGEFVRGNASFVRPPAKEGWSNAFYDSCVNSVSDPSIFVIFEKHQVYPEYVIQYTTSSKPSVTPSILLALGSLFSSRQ
Test: biochemical
pIC50: −log10 of the molar value.
recorded endpoint: pIC50

[Q] Report pIC50 for NC(=O)c1ccc(Oc2ccc(C(N)=O)cc2)cc1 [OUL35, 4,4′-oxydibenzamide] please.
[A] < 4.00
